Experiment: Single-dose two-period crossover bioequivalence study, fasting: plasma pharmacokinetics of lisinopril and amlodipine (LC-MS/MS, NCA);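 further: single tablet dose 10 mg/5 mg fixed combination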
Conditions: human, plasma, po, Plasma concentration of amlodipine, Max, reference (R) tablets, nominal time 2 h, maximum over subjects
MEASURED_PARAMETER: concentration at 2 h (ng/mL)
Write down the numeric answer in ng/mL and omit the unit.

Exercise: # lookup: concentration at 2 h of CCOC(=O)C1=C(COCCN)NC(C)=C(C(=O)OC)C1c1ccccc1Cl (stereo not shown)
Key: 2.57

----------
Test: Single-dose two-period crossover bioequivalence study, fed (high-fat breakfast): plasma pharmacokinetics of lisinopril and amlodipine (LC-MS/MS, NCA)
Details: human, plasma, po, Plasma concentration of lisinopril, Mean, mean of 37 subjects, nominal time 96 h, reference (R) tablets
MEASURED_PARAMETER: concentration at 96 h (ng/mL)
Output spec: scalar in ng/mL, unitless text.

Exercise: Requested read-out: concentration at 96 h. Entry: NCCCC[C@H](N[C@@H](CCc1ccccc1)C(=O)O)C(=O)N1CCC[C@H]1C(=O)O
Key: 1.21

----------
Assay: Single-dose two-period crossover bioequivalence study, fed (high-fat breakfast): plasma pharmacokinetics of lisinopril and amlodipine (LC-MS/MS, NCA)
Details: human, plasma, po, Plasma concentration of lisinopril, Max, maximum among subjects, nominal time 9 h, reference (R) tablets
MEASURED_PARAMETER: concentration at 9 h (ng/mL)
Response body: numeric value in ng/mL, unit text excluded.

Exercise: Which concentration at 9 h value is on record for NCCCC[C@H](N[C@@H](CCc1ccccc1)C(=O)O)C(=O)N1CCC[C@H]1C(=O)O ?
Key: 27.1

----------
Assay: Single-dose two-period crossover bioequivalence study, fasting: plasma pharmacokinetics of lisinopril and amlodipine (LC-MS/MS, NCA);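 further: single tablet dose 10 mg/5 mg fixed combination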
Details: human, plasma, po, Plasma concentration of amlodipine, Mean, reference (R) tablets, nominal time 144 h, mean of subjects
MEASURED_PARAMETER: concentration at 144 h (ng/mL)
Respond with the bare value in ng/mL.

Exercise: What does the record list as concentration at 144 h for CCOC(=O)C1=C(COCCN)NC(C)=C(C(=O)OC)C1c1ccccc1Cl (stereo not shown) ?
Key: 0.2

----------
Assay: Single-dose two-period crossover bioequivalence study, fed (high-fat breakfast): plasma pharmacokinetics of lisinopril and amlodipine (LC-MS/MS, NCA)
Conditions: human, plasma, po, Plasma concentration of lisinopril, Mean, mean of 37 subjects, nominal time 72 h, reference (R) tablets
MEASURED_PARAMETER: concentration at 72 h (ng/mL)
Numbers only here, please. The scale is ng/mL.

Exercise: Name the reported concentration at 72 h value associated with the compound NCCCC[C@H](N[C@@H](CCc1ccccc1)C(=O)O)C(=O)N1CCC[C@H]1C(=O)O [lisinopril]
Key: 1.46

----------
Assay: Single-dose two-period crossover bioequivalence study, fed (high-fat breakfast): plasma pharmacokinetics of lisinopril and amlodipine (LC-MS/MS, NCA)
Details: human, plasma, po, Plasma concentration of lisinopril, Min, minimum among subjects, nominal time 13 h, reference (R) tablets
MEASURED_PARAMETER: concentration at 13 h (ng/mL)
Value expressed in ng/mL; do not type the unit.

Exercise: Name the reported concentration at 13 h value associated with the compound NCCCC[C@H](N[C@@H](CCc1ccccc1)C(=O)O)C(=O)N1CCC[C@H]1C(=O)O [lisinopril]
Key: 3.73
